# key: entry, value: activation
- TESTED SYSTEM: D(2) dopamine receptor (Homo sapiens) (UniProt P14416)
- Sequence (P14416 whole entry, looked up): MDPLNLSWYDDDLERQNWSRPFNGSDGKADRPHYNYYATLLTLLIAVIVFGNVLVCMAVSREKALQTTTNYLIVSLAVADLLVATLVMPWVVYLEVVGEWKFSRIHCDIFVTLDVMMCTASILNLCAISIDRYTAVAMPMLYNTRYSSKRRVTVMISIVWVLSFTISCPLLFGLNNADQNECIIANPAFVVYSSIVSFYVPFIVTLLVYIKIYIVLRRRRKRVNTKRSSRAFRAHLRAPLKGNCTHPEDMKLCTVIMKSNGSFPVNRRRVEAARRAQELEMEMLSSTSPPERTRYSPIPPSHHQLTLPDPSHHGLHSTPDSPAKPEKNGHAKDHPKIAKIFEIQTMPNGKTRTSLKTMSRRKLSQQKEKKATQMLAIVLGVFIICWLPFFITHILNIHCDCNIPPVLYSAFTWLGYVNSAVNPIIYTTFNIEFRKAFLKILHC
- PROTOCOL DETAILS: HTS Assay for Allosteric Agonists of the Human D2 Dopamine Receptor: Primary Screen for Agonists; also: 0% is about no effect
- CONDITION: HEK293 T-REx D2 cells, calcium flux agonist mode; at 2 µM; active compounds read high
Hit rate of the full screen: of about 340,000 compounds, about 1,800 (0.53%) were called active. The sample as a whole holds a higher share of actives than the screen did.
Return type: number; implicit unit %.

| COMPOUND | TESTED SYSTEM | activation (%) |
| --- | --- | --- |
| CCn1cc(C(=O)N2CCN(C3CCCCC3)CC2)c2cc(OC)c(OC)cc2c1=O | D(2) dopamine receptor (Homo sapiens) (UniProt P14416) | 0.186 |
| Cc1ccc2[nH]c(=O)c(CN3CCCCC3)c(-c3ccccc3)c2c1 | D(2) dopamine receptor (Homo sapiens) (UniProt P14416) | 16.6 |

Give the measured activation of CCn1cc(C(=O)N2CCN(c3cc(Cl)ccc3C)CC2)c(=O)c2cc(S(=O)(=O)N3CCCC3)ccc21 .
0.428

// repeat for O=C(/C=C(O)/C=C/c1ccc(O)cc1)/C=C/c1ccc(O)cc1 and report
57.4

// repeat for Cc1csc2nc(COc3ccc(NC(=O)COc4ccccc4)cc3)cc(=O)n12 and report
-0.592

// repeat for C=CCNC(=O)/C=C/c1ccc(C(C)C)cc1 and report
0.0403

// repeat for Cc1nc(SCC(=O)N2CCN(c3ccccc3)CC2)[nH]c(=O)c1C and report
16

* * *

- TESTED SYSTEM: D(2) dopamine receptor (Homo sapiens) (UniProt P14416)
- PROTOCOL DETAILS: HTS Assay for Allosteric Agonists of the Human D2 Dopamine Receptor: Primary Screen for Agonists; also: 0% is about no effect
- CONDITION: HEK293 T-REx D2 cells, calcium flux agonist mode; at 2 µM
- Method: NIH Chemical Genomics Center [NCGC] NIH Molecular Libraries Probe Centers Network [MLPCN] […] Freshly passaged cells are plated in 1536 well black, clear bottom plates at a density of 4000 cells/well in 3 ul of complete media containing 1x tetracycline inducer. […] Agonist read: A 10 cycle (1 second/cycle) baseline measurement is taken and then the FDSS online 1536 pintool delivers 23 nl of compound library (as well as dopamine controls) to the plate. […]
About 1,800 (0.53%) of roughly 340,000 compounds were called active.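 Rule for the calls: active = activation over 3 SD above normal in the single-dose calcium agonist read (cut at about 30% in these data); inactive = the rest.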 The sample holds actives, similar compounds and a random draw of the others, so the mix is not that of the screen.
I would appreciate it if you answered using one of these outcomes: 1 (active), -1 (inactive)

Below are worked cases with known answers.
| MOLECULE | TESTED SYSTEM | CLASSIFICATION |
| --- | --- | --- |
| COc1cccc(OC)c1C(=O)N1CCN(Cc2cccnc2)CC1 | D(2) dopamine receptor (Homo sapiens) (UniProt P14416) | -1 |
| CC(=O)NCC(O)c1ccc([N+](=O)[O-])cc1 (stereo not drawn) | D(2) dopamine receptor (Homo sapiens) (UniProt P14416) | -1 |
| CCS(=O)(=O)N1CCC(C(=O)N2CCN(c3ccccc3)CC2)CC1 | D(2) dopamine receptor (Homo sapiens) (UniProt P14416) | -1 |
| COc1ccc(C2=NC(c3ccncc3)=Nc3ccc(Br)cc3N2)cc1 | D(2) dopamine receptor (Homo sapiens) (UniProt P14416) | -1 |
| Cc1ccccc1CNC(=O)C1CCCN(S(=O)(=O)N(C)c2ccc(F)cc2)C1 (stereo not drawn) | D(2) dopamine receptor (Homo sapiens) (UniProt P14416) | -1 |

For this molecule, state the assay outcome: O=S(=O)(NCCc1nnc2ccc(SCc3ccc(Cl)cc3Cl)nn12)c1ccccc1
-1

// repeat for O=C(NCc1cccs1)C1CCN(S(=O)(=O)c2ccc(Cl)cc2)CC1 and report
-1

// repeat for Cc1ccc(CN2CCN(c3ncccn3)CC2)c(C)c1 and report
1

// repeat for N#C/C=C/N1CCN(Cc2ccc3c(c2)OCO3)CC1 and report
-1

* * *

- TESTED SYSTEM: D(2) dopamine receptor (Homo sapiens) (UniProt P14416)
- PROTOCOL DETAILS: HTS Assay for Allosteric Agonists of the Human D2 Dopamine Receptor: Primary Screen for Agonists; also: 0% is about no effect
- CONDITION: HEK293 T-REx D2 cells, calcium flux agonist mode; at 2 µM; active compounds read high
The whole screen tested about 340,000 compounds, of which about 1,800 (0.53%) were called active. The full list was thinned out, with actives kept by preference.
TEST READOUT: activation (%)
Return type: number; implicit unit %.

Worked examples, 5 molecules total:
| MOLECULE | TESTED SYSTEM | QUANTITATIVE RESULT |
| --- | --- | --- |
| O=c1cc(CN2CCN(c3cccc(Cl)c3)CC2)c2cc3c(cc2o1)CCCC3 | D(2) dopamine receptor (Homo sapiens) (UniProt P14416) | -0.276 |
| OC(COc1ccc2c(c1)CCC2)CN1CCN(c2cccc(Cl)c2)CC1 (stereo unspecified) | D(2) dopamine receptor (Homo sapiens) (UniProt P14416) | 55.1 |
| CC(C)(C)OC(=O)NCCCCCC(=O)N/N=C/c1coc2ccccc2c1=O | D(2) dopamine receptor (Homo sapiens) (UniProt P14416) | 0 |
| CSc1cccc(NC(=O)CN2C(=O)CCc3cc(S(=O)(=O)N4CCCCC4)ccc32)c1 | D(2) dopamine receptor (Homo sapiens) (UniProt P14416) | 1.49 |
| COc1ccc(-c2nc(S(=O)(=O)c3ccccc3)c(N3CCCCC3)o2)cc1 | D(2) dopamine receptor (Homo sapiens) (UniProt P14416) | -0.427 |

Give the measured activation of COc1ccc(OCCCn2cccc2/C=C2/C(=N)N3OC(C)=CC3=NC2=O)cc1 .
-1.02

// repeat for Cc1ccccc1N1CCN(CCCOc2ccc3c(C)cc(=O)oc3c2)CC1 and report
80.1

// repeat for O=C(c1ccc(Cl)cc1)c1ccc(OCC(O)CN2CCCCC2)cc1 (stereo unspecified) and report
0.406

// repeat for COc1ccccc1-c1cc2nc(C)c(CCC(=O)O)c(C)n2n1 and report
0.732

// repeat for Cc1cc(=O)oc2cc(OCCC[n+]3ccccc3)ccc12 and report
0.774

// repeat for Cc1cccc(-c2nnc(SCC(=O)N3CCCc4ccccc43)o2)c1 and report
-1.45

* * *

- TESTED SYSTEM: D(2) dopamine receptor (Homo sapiens) (UniProt P14416)
- PROTOCOL DETAILS: HTS Assay for Allosteric Agonists of the Human D2 Dopamine Receptor: Primary Screen for Agonists; also: 0% is about no effect
- CONDITION: HEK293 T-REx D2 cells, calcium flux agonist mode; at 2 µM
In all, about 340,000 compounds went through this assay and about 1,800 (0.53%) were called active.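 The calls were made as follows: active = activation over 3 SD above normal in the single-dose calcium agonist read (cut at about 30% in these data); inactive = the rest.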 The sample as a whole holds a higher share of actives than the screen did.
I would appreciate it if you answered using one of these outcomes: active, inactive

Below are worked cases with known answers.
| COMPOUND | CLASSIFICATION |
| --- | --- |
| Cn1ccc2cc(S(=O)(=O)N3CCCC(C(=O)NCc4ccccc4F)C3)ccc21 (stereo not given) | inactive |
| Cc1ccc(C)c(N2CCN(Cc3nnc(-c4ccccc4)o3)CC2)c1 | inactive |
| COc1ccc(-c2cn3nc(N4CCCC(C(=O)NCCCOC(C)C)C4)sc3n2)cc1 (stereo not given) | inactive |
| COc1ccc(N2CCN(Cc3nnc(-c4ccccc4)o3)CC2)cc1 | inactive |
| COc1ccc2c(CN3CCN(S(=O)(=O)c4cccs4)CC3)cc(=O)oc2c1 | inactive |

For this compound, state the assay outcome: c1ccc(-c2cnc(CN3CCN(c4ccccc4)CC3)o2)cc1
active

// repeat for COc1ccc2oc(=O)cc(CN3CCOCC3)c2c1 and report
inactive

// repeat for O=[N+]([O-])c1ccc(C=Nc2ccc(Cl)cc2Cl)s1 and report
active

// repeat for Cc1nc(N2CCN(c3ccccn3)CC2)c2c(C)c(C(=O)Nc3ccc(F)cc3)sc2n1 and report
inactive

// repeat for Cc1c(CN2CC[C@@H](N3CCN(c4ccccn4)CC3)[C@H](O)C2)[nH]c2ccc(F)cc12 and report
active

* * *

- TESTED SYSTEM: D(2) dopamine receptor (Homo sapiens)
- PROTOCOL DETAILS: HTS Assay for Allosteric Agonists of the Human D2 Dopamine Receptor: Primary Screen for Agonists; also: 0% is about no effect
- CONDITION: HEK293 T-REx D2 cells, calcium flux agonist mode; at 2 µM; active compounds read high
- Protocol: NIH Chemical Genomics Center [NCGC] NIH Molecular Libraries Probe Centers Network [MLPCN] […] Freshly passaged cells are plated in 1536 well black, clear bottom plates at a density of 4000 cells/well in 3 ul of complete media containing 1x tetracycline inducer. […] Agonist read: A 10 cycle (1 second/cycle) baseline measurement is taken and then the FDSS online 1536 pintool delivers 23 nl of compound library (as well as dopamine controls) to the plate. […]
In all, about 340,000 compounds went through this assay and about 1,800 (0.53%) were called active. Many of the other results were omitted from the sample, so actives are more common in it than they were.
# key: entry, value: activation
Return type: number; implicit unit %.

| COMPOUND | activation [%] |
| --- | --- |
| CC1(c2ccc(Cl)cc2)NC(=O)N(CC(=O)c2ccc3c(c2)OCO3)C1=O (stereo not given) | 6.26 |
| Cc1ccccc1CNC(=O)C(=O)NCC(c1cccs1)S(=O)(=O)c1cccs1 (stereo not given) | 0.367 |
| Cc1ccc(Cl)cc1NC(=O)/C(C#N)=C\c1cn(Cc2ccc(F)cc2)c2ccccc12 | 0.348 |
| Cn1c(=O)c2sccc2n2c(CCC(=O)NCc3ccccc3Cl)nnc12 | -0.258 |
| Cc1nc2ccc(S(=O)(=O)NC(C(=O)NCc3ccccc3Cl)C(C)C)cc2s1 (stereo not given) | -0.364 |

Give the measured activation of Cc1ccc2ncc(C(=O)Nc3ccc(OC(F)(F)F)cc3)c(=O)n2c1 .
-0.574

// repeat for Cc1ccc(C(=O)Nc2c(C(=O)NC(C)(C)C)oc3ccccc23)cc1 and report
0.0939

// repeat for COc1ccc(C2=NC3(CCCCC3)N(CC(=O)Nc3ccc(C(C)C)cc3)C2=O)cc1 and report
-0.0796

// repeat for Cc1cc(C)cc(NC(=O)CSc2nc3nccnc3c(=O)n2CCc2c[nH]c3ccccc23)c1 and report
0.038

// repeat for CCC1(c2ccccc2)NC(=O)N(CC(=O)c2ccc3c(c2)OCO3)C1=O (stereo not given) and report
0.171
